B1: CPEB3 Ribozyme (parent)
chain: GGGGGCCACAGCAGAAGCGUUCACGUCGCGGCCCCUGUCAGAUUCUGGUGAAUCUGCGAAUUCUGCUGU

# Variants of: B1
# measurement_notes: self-cleavage, relative activity (ratio to wild type); higher = more cleavage; co-transcriptional
self-cleavage of 0.3 or higher: YES. Under 0.3: NO.

[
  {
    "sequence_text": "GGGGGCCACAGCAGAAGCGUUCACGUCGCGGCCCCUCUCAGAUUCAGGUGAAUCUGCGAAUUCUGCUGU",
    "label_class": "NO"
  },
  {
    "sequence_text": "GGUGGCCACAGCAGAAGCGUUCACGUCGCGGCCCCUGUCAGAUUCUGGUGAAUCUGCUAAUUCUGCUGU",
    "label_class": "NO"
  },
  {
    "sequence_text": "GGGGGCCACAGCAGAAGCGUUCACGUCGCGGCCCCUUUCAGAUUCUGGUGCAUCUGCGAAUUCUGCUGU",
    "label_class": "NO"
  },
  {
    "sequence_text": "GGGGGCCACAGCAGAAGCGUUCACGUCGCGGCCCCUGUCAGAUUCUGGUGAACCUUCGAAUUCUGCUGU",
    "label_class": "YES"
  },
  {
    "sequence_text": "GGGGGCCACUGCAGAAGCGUUCACGUCGCGGCCCCUGUCAGAUUCUGGUGGAUCUGCGAAUUCUGCUGU",
    "label_class": "YES"
  },
  {
    "sequence_text": "GGGGGCCACAGCAGAAGCGUUCACGUCGCCGCCCCUGUCAGAUUCUGGUGAAUCUGCGAAUUCCGCUGU",
    "label_class": "YES"
  },
  {
    "sequence_text": "GGGGGCCACAGCAGAAGCGUUCACGUCGCGGCCCCUGUCAGAUUCUGCUGAAUGUGCGAAUUCUGCUGU",
    "label_class": "YES"
  },
  {
    "sequence_text": "GGGGGCCACAGCAGAAGCGUUCACGUCGCUGCCCCUGUCCGAUUCUGGUGAAUCUGCGAAUUCUGCUGU",
    "label_class": "NO"
  },
  {
    "sequence_text": "GGGGGCCACAGCAGAAGAGUUCACGCCGCGGCCCCUGUCAGAUUCUGGUGAAUCUGCGAAUUCUGCUGU",
    "label_class": "NO"
  },
  {
    "sequence_text": "GGAGGCCACAGCAGAAGCGUUCACGUCGCGGCCUCUGUCAGAUUCUGGUGAAUCUGCGAAUUCUGCUGU",
    "label_class": "YES"
  },
  {
    "sequence_text": "GGGGGCCACAGCAGAAGCGUUCACGUCGCGGCCCCUGUCAGAUUCUGGUUAAUCUGCGAAUUCUUCUGU",
    "label_class": "YES"
  },
  {
    "sequence_text": "GGGGGCCACAGCAGAAGCGUUCACGUCGCGGCCCCAGUCAGAUUCUGGUGAAUCUGCGAAUUCUGCUUU",
    "label_class": "NO"
  },
  {
    "sequence_text": "GGGGGCCCCAGCAGAAGCGUUCACGUCGCGGACCCUGUCAGAUUCUGGUGAAUCUGCGAAUUCUGCUGU",
    "label_class": "YES"
  },
  {
    "sequence_text": "GGGGGCGACAGCAGAAGCGUUCACGUCGUGGCCCCUGUCAGAUUCUGGUGAAUCUGCGAAUUCUGCUGU",
    "label_class": "NO"
  },
  {
    "sequence_text": "GGGGGCCACAGCAGAAGCGUUCAAGUCGCGGCCCCUGUCAGAUUCUGGUGAAUGUGCGAAUUCUGCUGU",
    "label_class": "YES"
  },
  {
    "sequence_text": "GGGGGCCACAGCAGACGCGUUCACGUCGCGGCCCCUGUCAGAUUCGGGUGAAUCUGCGAAUUCUGCUGU",
    "label_class": "YES"
  },
  {
    "sequence_text": "GGGGGCCUCAGCAGAAGCGUUCACGUCGCGGCCCCUGUCAGAUUCUGGUGAAUCUGCGAAUUCCGCUGU",
    "label_class": "YES"
  },
  {
    "sequence_text": "GGGGGCGACAGCCGAAGCGUUCACGUCGCGGCCCCUGUCAGAUUCUGGUGAAUCUGCGAAUUCUGCUGU",
    "label_class": "NO"
  },
  {
    "sequence_text": "GGGGGCCACAGCAGAAGCGUUGACGUCGCGGCCCCUGUCAGAUUCUGGUGAAUCUGCGAAUUCUGCUCU",
    "label_class": "NO"
  },
  {
    "sequence_text": "GCGGGCCACAGCAGAAGCGUUCACGUCGCGGCCCCGGUCAGAUUCUGGUGAAUCUGCGAAUUCUGCUGU",
    "label_class": "NO"
  },
  {
    "sequence_text": "GGGGGCCACAGCAGAAGCGUUCACGUCGCGGCCACUGUCAGAUUCUGGUGAAUCUGCGAAUUCGGCUGU",
    "label_class": "YES"
  },
  {
    "sequence_text": "GGGGGCCACAGCAGACGCGUUCACGUCGCUGCCCCUGUCAGAUUCUGGUGAAUCUGCGAAUUCUGCUGU",
    "label_class": "NO"
  }
]
